Reference for the values: PubChem BioAssay (NCI)

# Tested on: SR leukemia
# assay: NCI tumour cell line growth inhibition, 48 h
Documented GI50 across a set of molecules

molecule: O=C(N/N=C/c1ccc(Cl)cc1)c1[nH]c2ccc(Cl)cc2c1-c1ccccc1
system: SR leukemia
GI50: 133 nM
--
molecule: COc1cc2c3c(ncc2c(OC)c1OC)-c1cc2c(cc1C3)OCO2
system: SR leukemia
GI50: 250 nM
--
molecule: CNCCNc1nc2ccccc2c2c(=O)c3cc(OC)ccc3sc12
system: SR leukemia
GI50: 1740 nM
--
molecule: CCCCCCNC(=O)Oc1ccc(/C(=C(/C)Cc2ccc(OC)cc2)c2ccc(OCCN(C)C)cc2)cc1
system: SR leukemia
GI50: 1320 nM
--
molecule: C[C@]12CC[C@@H](OC(=O)N(CCCl)N=O)C[C@@H]1CC[C@@H]1[C@@H]2CC[C@]2(C)C(=O)CC[C@@H]12
system: SR leukemia
GI50: 15.6 nM
--
molecule: COc1nc(C)cc2c(=O)n(-c3ccccc3)n(CC(O)CN3CCN(c4ccc(Cl)cc4)CC3)c(=O)c12 (stereo unspecified)
system: SR leukemia
GI50: > 50000 nM
--
molecule: CCCCN(CCCC)CCc1c(C)cc(C)c(CCN(CCCC)CCCC)c1O
system: SR leukemia
GI50: 2160 nM
--
molecule: C/C(=C(/c1ccc(O)cc1)c1ccc(Cl)cc1)c1ccccc1
system: SR leukemia
GI50: 920 nM
--
molecule: CNCCNc1nc2ccccc2c2c(=O)c3cc(F)ccc3sc12
system: SR leukemia
GI50: 1830 nM
--
molecule: COc1ccc(NC(=O)n2nc(/C=C\c3ccc(O)c(OC)c3)cc2/C=C\c2ccc(O)c(OC)c2)cc1
system: SR leukemia
GI50: 1520 nM
--
molecule: COC(=O)c1ccc(CN2C(=O)C(Cl)=C(Nc3ccc(OC)c(Cl)c3)C2=O)cc1
system: SR leukemia
GI50: 4080 nM
